B1: tRNA (parent)
chain: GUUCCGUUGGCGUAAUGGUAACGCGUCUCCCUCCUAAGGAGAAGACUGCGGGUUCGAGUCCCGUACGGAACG

- Variants of: B1
- protocol_notes: yeast fitness relative to wild type (ratio to wild type); higher = fitter; tRNA-Arg(CCU), competitive growth, 37 C, YPD
Variants at the floor of the assay were thinned out.
Give measured yeast fitness for each item. Keep answers brief.
# respond with the number and nothing more

In plain terms, A57U G63C U64A A70U has a documented yeast fitness of 0.646

In plain terms, C11U U28A has a documented yeast fitness of 0.682

In plain terms, C24A G25C has a documented yeast fitness of 0.702

In plain terms, U13C G38C has a documented yeast fitness of 0.644

In plain terms, G51A C61U A65G A69C has a documented yeast fitness of 1.07

In plain terms, U19C G58A has a documented yeast fitness of 0.961

In plain terms, G17C U47C has a documented yeast fitness of 0.711

In plain terms, A65C G67C has a documented yeast fitness of 0.782

In plain terms, A14C G25C C66U has a documented yeast fitness of 0.531

In plain terms, U26C C30U C61A has a documented yeast fitness of 0.571

In plain terms, C4G C5U C22G U64A has a documented yeast fitness of 0.542

In plain terms, C27G G63C has a documented yeast fitness of 0.582
